# ASSAY OVERVIEW: chemical genetic growth profiling, strain panel (AID 1159580);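 note: tested at 20 µM; growth read once vehicle control cultures reached saturation at 30 °C; 1 = growth at the plate median or of vehicle wells; lower values mean less growth of the strain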
# TEST CONDITIONS: S. cerevisiae deletion strains, growth OD, locus YPL055C, strain LGE1, hits give low values
The campaign covered roughly 5,500 compounds. About 2,000 (36%) were called active. Another 18% or so got no clear call; they are omitted. This is one part of the list.
Listing of recorded normalized growth by entry.

| COMPOUND | normalized growth |
| --- | --- |
| O=C1CCC(N2C(=O)c3ccccc3C2=O)C(=O)N1 (stereo unspecified) | 1.05 |
| C[C@@H]1CC(Cl)CC[C@H]1C(=O)OC(C)(C)C (stereo partly specified) | 0.864 |
| C=CC1(C)CC(=O)C2(O)C(C)(O1)C(OC(C)=O)C(O)C1C(C)(C)CCC(O)C12C (stereo unspecified) | 0.994 |
| c1ccc2c(c1)CCCC2C1=NCCN1 (stereo unspecified) | 0.995 |
| Cc1ccc(-c2csc(CC#N)n2)cc1C | 0.946 |
| O=C(O[C@@H]1Cc2c(O)cc(O)cc2O[C@@H]1c1ccc(O)c(O)c1)c1cc(O)c(O)c(O)c1 | 0.761 |

====

Listing of recorded normalized growth by entry.
# ASSAY OVERVIEW: chemical genetic growth profiling, strain panel (AID 1159580)
# TEST CONDITIONS: S. cerevisiae deletion strains, growth OD, locus YER155C, strain BEM2, hits give low values
The campaign covered roughly 5,500 compounds. About 2,000 (36%) were called active. Inconclusive results (about 18%) are left out. This is one part of the list.

| MOLECULE | normalized growth |
| --- | --- |
| c1ccc2c(c1)CCCC2C1=NCCN1 (stereo not drawn) | 1.01 |
| CN1CC(CO)=C[C@@H]2c3cccc4[nH]cc(c34)C[C@H]21 | 1.01 |
| CCCCCCCCCCC[C@@H](C[C@H]1OC(=O)[C@H]1CCCCCC)OC(=O)[C@@H](CC(C)C)NC=O | 1.03 |

====

Listing of recorded normalized growth by entry.
# ASSAY OVERVIEW: chemical genetic growth profiling, strain panel (AID 1159580)
# TEST CONDITIONS: S. cerevisiae deletion strains, growth OD, locus YHR129C, strain ARP1, hits give low values
Among all 5,500 compounds or so, about 2,000 (36%) were called active. Another 18% or so got no clear call; they are omitted. The list shows a part of the results.

| MOLECULE | normalized growth |
| --- | --- |
| CCC(C)C(=O)O[C@@H]1C[C@@]2(C)[C@H](c3ccoc3)OC(=O)CC23OC2(C)OC34[C@H](OC(=O)C(C)C)[C@@]3(O)[C@@H](OC(=O)C5(C)OC5C)[C@@]5(C)C[C@]3(O)[C@@](C)([C@H]5CC(=O)OC)C14O2 (stereo not given in full) | 1.02 |
| COC(=O)C[C@H]1C2(C)CC34OC5(C)O[C@@]6([C@H](OC(C)=O)C(OC(C)=O)[C@]7(C)C(/C(=C(/O)C(C)C)C(=O)O[C@H]7c7ccoc7)[C@@]6(O5)[C@H](OC(C)=O)[C@@]3(O)C2OC(=O)C(C)C)[C@]14C (stereo not given in full) | 1 |
| CN1C2CCC1CC(OC(c1ccccc1)c1ccccc1N)C2 (stereo not given) | 1.01 |
| CCC(C)C(=O)O[C@@H]1C[C@@]2(C)[C@H](c3ccoc3)OC(=O)CC23OC2(C)O[C@]14[C@]1(C)[C@@H](CC(=O)OC)C5(C)CC1(O)[C@](O)(C5OC(=O)C1(C)OC1C)[C@@H](OC(C)=O)[C@]34O2 (stereo not given in full) | 1 |
| CCC(C)C(=O)OC1CC2(C)C(c3ccoc3)OC(=O)CC23OC2(C)OC34C(OC(=O)C(C)C)C3(O)C(OC(=O)C5(C)OC5C)C5(C)CC3(O)C(C)(C5C(=O)OC)C14O2 (stereo not given) | 1.01 |

====

# ASSAY OVERVIEW: chemical genetic growth profiling, strain panel (AID 1159580)
# TEST CONDITIONS: S. cerevisiae deletion strains, growth OD, locus YOL006C, strain TOP1, hits give low values
About 2,000 (36%) of roughly 5,500 compounds were called active. Roughly 18% stayed inconclusive and do not appear here. Some of the results follow.

| COMPOUND | normalized growth |
| --- | --- |
| NC(=O)c1ccc[n+]([C@@H]2O[C@H](COP(=O)([O-])OP(=O)(O)OC[C@H]3O[C@@H](n4cnc5c(N)ncnc54)[C@H](OP(=O)(O)O)[C@@H]3O)[C@@H](O)[C@H]2O)c1 | 1.03 |
| OCC(O)CN1CCN(c2ccccc2)CC1 (centres undefined) | 0.981 |
| CCC(C)C(=O)OC1CC2(C)C(c3ccoc3)OC(=O)CC23OC2(C)OC34C(OC(=O)C(C)C)C3(O)C(OC(=O)C5(C)OC5C)C5(C)CC3(O)C(C)(C5C(=O)OC)C14O2 (centres undefined) | 0.923 |
| CN1CC(CO)=C[C@@H]2c3cccc4[nH]cc(c34)C[C@H]21 | 0.983 |

====

# ASSAY OVERVIEW: chemical genetic growth profiling, strain panel (AID 1159580);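 note: tested at 20 µM; growth read once vehicle control cultures reached saturation at 30 °C; 1 = growth at the plate median or of vehicle wells; lower values mean less growth of the strain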
# TEST CONDITIONS: S. cerevisiae deletion strains, growth OD, locus YNL298W, strain CLA4 (second series), hits give low values
Out of some 5,500 compounds screened, about 2,000 (36%) were called active. Not shown: some 18% with an inconclusive outcome. Some of the results follow.

| SUBSTANCE SMILES | normalized growth |
| --- | --- |
| Cc1ccc(C)n1-c1ccc(C(=O)NNC(=O)c2ccc3nccnc3c2)cc1 | 0.992 (inactive) |
| CN(C)C=Nc1ncccc1OCc1ccc(Cl)c(Cl)c1 | 0.788 (active) |
| CSc1c(-c2ccccc2)c(N)nn1S(=O)(=O)c1ccccc1 | 0.907 (inactive) |
| Cc1ccc(C)n1-c1ccc(C(=O)NNS(=O)(=O)c2ccc(Cl)cc2)cc1 | 0.945 (inactive) |
| CCOC(=O)N=Nc1c(O)[nH]c2ccc(F)cc12 | 0.998 (inactive) |
| CSc1nc(N)n(-c2ccccc2)n1 | 1 (inactive) |
| COc1c(Br)cc([N+](=O)[O-])c(OC)c1C(N)=O | 1.01 (inactive) |

====

# ASSAY OVERVIEW: chemical genetic growth profiling, strain panel (AID 1159580);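 note: tested at 20 µM; growth read once vehicle control cultures reached saturation at 30 °C; 1 = growth at the plate median or of vehicle wells; lower values mean less growth of the strain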
# TEST CONDITIONS: S. cerevisiae deletion strains, growth OD, locus YOL012C, strain htz1
The campaign covered roughly 5,500 compounds. About 2,000 (36%) were called active. Inconclusive results (about 18%) are left out. The list shows a part of the results.
Listing of recorded normalized growth by entry.

| COMPOUND | normalized growth |
| --- | --- |
| Nc1nc(=S)c2[nH]cnc2[nH]1 | 1.07 |
| CN1C2CCC1CC(OC(c1ccccc1)c1ccccc1)C2 (stereo not given) | 1 |
| COc1ccc2c(c1)OC/C(=C\c1ccc(OC)c(O)c1)C2=O | 0.356 |
| CN1C2CCC1CC(OC(c1ccccc1)c1ccccc1N)C2 (stereo not given) | 1.61 |
| Cn1c(=O)c2c(ncn2CC(O)CO)n(C)c1=O (stereo not given) | 0.82 |
| COC(=O)C[C@H]1C2(C)CC34OC5(C)O[C@@]6([C@H](OC)C(OC(=O)C(C)C)[C@]7(C)C(/C(=C(/OC)C(C)C)C(=O)O[C@H]7c7ccoc7)[C@@]6(O5)[C@H](OC)[C@@]3(OC)C2OC(C)=O)[C@]14C (stereo not given in full) | 0.933 |
| CN1C2C[C@H](OC(=O)[C@H](CO)c3ccccc3)C[C@H]1[C@@H](O)C2 | 0.77 |
| CCCCCCCCC(=O)NCc1ccc(O)c(OC)c1 | 0.863 |
| C[C@@H]1O[C@@H](O[C@H]2[C@H](Oc3cc(O)c4c(=O)cc(-c5ccc(O)cc5)oc4c3)O[C@H](CO)[C@@H](O)[C@@H]2O)[C@H](O)[C@H](O)[C@H]1O | 0.768 |
| COc1cc(CNC(=O)CCCC/C=C/C(C)C)ccc1O | 1.39 |

====

# ASSAY OVERVIEW: chemical genetic growth profiling, strain panel (AID 1159580);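 note: tested at 20 µM; growth read once vehicle control cultures reached saturation at 30 °C; 1 = growth at the plate median or of vehicle wells; lower values mean less growth of the strain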
# TEST CONDITIONS: S. cerevisiae deletion strains, growth OD, locus YER016W, strain bim1, hits give low values
The campaign covered roughly 5,500 compounds. About 2,000 (36%) were called active. About 18% were inconclusive and are not listed. The list shows a part of the results.

| MOLECULE | normalized growth |
| --- | --- |
| CCCCCCCCCCCCCc1ccco1 | 0.978 |
| Nc1ncn[nH]1 | 1.03 |
| COc1ccc([C@H]2Oc3c(I)c(OC)cc(OC)c3C[C@@H]2O)cc1OC | 1 |
| CC[C@@]1(O)C[C@H](O[C@H]2C[C@H](N(C)C)[C@H](O)[C@H](C)O2)c2c(cc3c(c2O)C(=O)c2c(O)ccc(O)c2C3=O)[C@H]1C(=O)OC | 0.954 |
| C#CCN(C)Cc1ccccc1 | 0.979 |
| CC[C@@H]1C=C/C=C/C[C@H](C)[C@@H](O)[C@](C)(O)C(=O)[C@H](C)[C@@H](O)[C@H](C)C(=O)[C@H](C)[C@@H](O)[C@H](C)/C=C/C(=O)O[C@H]2[C@@H](C)[C@@H](CC1)O[C@@]1(CC[C@@H](C)[C@@H](C[C@H](C)O)O1)[C@@H]2C | 1.01 |
| CCCc1cc(C(N)=S)ccn1 | 0.988 |
| Oc1ccc2c(c1)O[C@H](c1ccc(O)c(O)c1)[C@@H](O)C2 | 1.02 |
| CCC[C@H](N[C@@H](C)C(=O)N1[C@H](C(=O)O)C[C@@H]2CCCC[C@@H]21)C(=O)OCC | 1.02 |
| C=CCCCCCCCCCCCc1ccco1 | 0.814 |
| O=C(O)CCCc1ccc(N(CCCl)CCCl)cc1 | 0.986 |
| C#CCCCCCCCCCCCc1ccco1 | 0.988 |
| CCN1CCCC(OC(=O)C(c2ccccc2)c2ccccc2)C1 (stereo not drawn) | 0.986 |
| CC[C@@]1(O)C[C@H](O)c2c(cc3c(c2O)C(=O)c2c(O)ccc(O)c2C3=O)[C@H]1C(=O)OC | 0.909 |
| COC(=O)/C=C/C(C)=C/C=C/C(C)=C/C=C/C=C(C)/C=C/C=C(C)/C=C/C(=O)O | 1.01 |
| CN1C2C[C@H](OC(=O)[C@H](CO)c3ccccc3)C[C@H]1[C@@H](O)C2 | 1.03 |
| CN1C2CCC1CC(OC(c1ccccc1)c1ccccc1N)C2 (stereo not drawn) | 0.991 |
| CNCCC(Oc1ccc(C(F)(F)F)cc1)c1ccccc1 (stereo not drawn) | 0.992 |
| CC[C@@]1(O)C[C@H](O[C@H]2C[C@H](N(C)C)[C@H](O)[C@H](C)O2)c2c(cc3c(c2O)C(=O)c2c(O)cccc2C3=O)[C@H]1C(=O)OC | 0.925 |
| OCCc1ccccc1 | 0.99 |
| Oc1cc(O)c2c(c1)O[C@H](c1ccc(O)c(O)c1)[C@@H](O)C2 | 0.997 |
| CNC(=O)O/N=C(\C)SC | 1 |
| Cc1ccc(S(=O)(=O)NC(=O)NN2CCCCCC2)cc1 | 0.976 |
